Test system: H292 clone 15 cells
Assay: Alamar Blue cytotoxicity
Settings: H292 clone 15 cells; 48 hours; average of 3 experiments
The entries below come with measured Est. LD50 (Alamar Blue) values attached.
Answers without a unit are incomplete; give the number and then its unit.

Known Est. LD50 (Alamar Blue) results, listed for orientation:
{"COMPOUND": "O=C1OC(CC(=O)c2cccnc2Oc2cccc(Br)c2)c2ccccc21 (stereo not drawn)", "Est. LD50 (Alamar Blue)": "16 µM"}
{"COMPOUND": "O=C1OC(CC(=O)c2cccnc2Oc2ccccc2)c2ccccc21 (stereo not drawn)", "Est. LD50 (Alamar Blue)": "43 µM"}
{"COMPOUND": "O=C1OC(CC(=O)c2cccnc2Oc2ccc(F)cc2F)c2ccccc21 (stereo not drawn)", "Est. LD50 (Alamar Blue)": "22 µM"}
{"COMPOUND": "Cc1cccc(Nc2ccccc2C(=O)CCc2ccccc2C(=O)O)c1C", "Est. LD50 (Alamar Blue)": "27 µM"}
{"COMPOUND": "O=C1OC(CC(=O)c2cccnc2Oc2cccc(Cl)c2Cl)c2ccccc21 (stereo not drawn)", "Est. LD50 (Alamar Blue)": "10 µM"}
{"COMPOUND": "Cc1cccc(Nc2ccccc2C(=O)CC2OC(=O)c3ccccc32)c1C (stereo not drawn)", "Est. LD50 (Alamar Blue)": "35 µM"}
{"COMPOUND": "COC(=O)c1ccccc1/C=C/C(=O)c1cccnc1Nc1cccc(C(F)(F)F)c1", "Est. LD50 (Alamar Blue)": "16 µM"}
{"COMPOUND": "O=C1OC(OC(=O)c2cccnc2Nc2cccc(C(F)(F)F)c2)c2ccccc21 (racemic) [Talniflumate, talniflumate]", "Est. LD50 (Alamar Blue)": "108 µM"}
{"COMPOUND": "O=C(O)c1ccccc1CCC(=O)c1cccnc1Oc1ccccc1", "Est. LD50 (Alamar Blue)": "885 µM"}
{"COMPOUND": "O=C(CC1OC(=O)c2ccccc21)c1ccccc1Nc1cccc(C(F)(F)F)c1 (stereo not drawn)", "Est. LD50 (Alamar Blue)": "69 µM"}

The recorded Est. LD50 (Alamar Blue) for entry O=C1OC(CC(=O)c2cccnc2Nc2cccc(C(F)(F)F)c2)c2ccccc21 (stereo not drawn) equals 32 µM

The recorded Est. LD50 (Alamar Blue) for entry "Cc1c(Cl)cccc1Nc1ccccc1C(=O)CCc1ccccc1C(=O)O" equals 27 µM

----------
Test system: activated Caco2 cells
Settings: Caco-2
REPORTED PROPERTY: Mucin production by activated Caco2 cells

{"COMPOUND": "CC1=C(CC(=O)O)c2cc(F)ccc2/C1=C\\c1ccc([S+](C)[O-])cc1 (centres unmarked)", "READING": "ineffective"}
{"COMPOUND": "COc1ccc2cc([C@H](C)C(=O)O)ccc2c1", "READING": "ineffective"}
{"COMPOUND": "Cc1ccc(Cl)c(Nc2ccccc2C(=O)O)c1Cl [Meclofenamate]", "READING": "partially"}
{"COMPOUND": "Cc1cccc(Nc2ccccc2C(=O)O)c1C [Mefenamate]", "READING": "partially"}

----------
System: H292 clone 15 cells
Assay: Alamar Blue cytotoxicity
Conditions: H292 clone 15 cells; 48 hours; average of 3 experiments
The entries below come with measured Est. LD50 (Alamar Blue) values attached.
Answers without a unit are incomplete; give the number and then its unit.

{"COMPOUND": "O=C(CC1OC(=O)c2ccccc21)c1ccccc1Sc1ccccc1Cl (centres unmarked)", "TARGET OF ASSAY": "H292 clone 15 cells", "Est. LD50 (Alamar Blue)": "15 µM"}
{"COMPOUND": "O=C(CC1OC(=O)c2ncccc21)c1cccnc1Nc1cccc(C(F)(F)F)c1 (centres unmarked)", "TARGET OF ASSAY": "H292 clone 15 cells", "Est. LD50 (Alamar Blue)": "11 µM"}
{"COMPOUND": "O=C(O)c1ccccc1CCC(=O)c1ccccc1Nc1cccc(C(F)(F)F)c1", "TARGET OF ASSAY": "H292 clone 15 cells", "Est. LD50 (Alamar Blue)": "30 µM"}
{"COMPOUND": "O=C1OC(CC(=O)c2cccnc2Oc2cccc(Cl)c2)c2ccccc21 (centres unmarked)", "TARGET OF ASSAY": "H292 clone 15 cells", "Est. LD50 (Alamar Blue)": "23 µM"}

Now look at this entry.
The recorded Est. LD50 (Alamar Blue) for entry Cc1c(Cl)cccc1Nc1ccccc1C(=O)CC1OC(=O)c2ccccc21 (centres unmarked) equals 19 µM
